- TARGET_SYSTEM: T1, mouse 4-1BB protein (extracellular domain) (mouse, UniProt P20334 24-187)
- T1 construct: extracellular domain; also called mouse 4-1BB-his; mouse 4-1BB-hFc protein
- T1 sequence (looked up): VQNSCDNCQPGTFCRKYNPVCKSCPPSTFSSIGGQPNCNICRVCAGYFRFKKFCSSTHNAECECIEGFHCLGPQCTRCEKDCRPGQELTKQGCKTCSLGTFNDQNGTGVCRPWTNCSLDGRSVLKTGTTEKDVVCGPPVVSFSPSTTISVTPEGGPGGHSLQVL
- ASSAY_REMARKS: ELISA, coated mouse 4-1BB; Ab 0.08 ug/ml
RESULT_TYPE: OD450 nm (OD450 nm)
Just the number please, in OD450 nm, no unit attached.

[Q] # lookup: OD450 nm of 113F6C6 (antibody, V domains shown, also called 4-1BB fully human antibody 113F6C6; 113F6F6) VH: QVQLVESGGGVVQPGRSLRLSCAASGLTFSSYGMHWVRQAPGKGLEWVAVIWYDGSNKYYADSVKGRFTISRDNSKNTLYLQMNSLRAEDTAVYYCAREEVLWFGELSYNYYYGMDVWGQGTTVTVSS VL: DIQMTQSPSSLSASVGDRVTITCRASQGISNYLAWYQQKPGKVPKLLIYAASTLQSGVPSRFSGSGSGTDFTLTISSLQPEDVATYYCQKYNSVPLTFGGGTKVEIK
[A] 0.05
